# assay-overview: Compound was tested in vitro for lumenal concentration in the rat jejunal sac to decrease by 50%.
# Assay type: ADME
Square brackets hold non-standard residues; d marks the D form. Peptide text beside a SMILES is read from it. pGlu = O=C1CC[C@@H](C(=O)O)N1
This section presents molecules with their documented half-life values.
Quick note: unit goes after the number.

CCNC(=O)[C@@H]1CCCN1C(=O)[C@H](CCCN=C(N)N)NC(=O)[C@H](CC(C)C)NC(=O)[C@@H](CC(C)C)NC(=O)[C@H](Cc1ccc(O)cc1)NC(=O)[C@H](CO)NC(=O)[C@H](Cc1ccc(Cl)cc1)NC(=O)[C@H](Cc1c[nH]cn1)NC(=O)[C@@H]1CCC(=O)N1
4.4 min
CCNC(=O)[C@@H]1CCCN1C(=O)[C@H](CCCN=C(N)N)NC(=O)[C@H](CC(C)C)NC(=O)[C@@H](CC(C)C)NC(=O)[C@H](Cc1ccc(O)cc1)NC(=O)[C@H](CO)NC(=O)[C@H](Cc1c[nH]c2ccccc12)NC(=O)[C@H](Cc1c[nH]cn1)NC(=O)CN(C)C(C)=O
60 min
CCNC(=O)[C@@H]1CCCN1C(=O)[C@H](CCCN=C(N)N)NC(=O)[C@H](CC(C)C)NC(=O)[C@@H](CC(C)C)NC(=O)[C@H](Cc1ccc(O)cc1)NC(=O)[C@H](CO)NC(=O)[C@H](Cc1c[nH]c2ccccc12)NC(=O)[C@H](Cc1ccccc1)NC(=O)[C@@H]1CCC(=O)N1 ([pGlu]FWSY[dL]LRP-NHEt)
2.2 min

Need half-life of CCNC(=O)[C@@H]1CCCN1C(=O)[C@H](CCCNC(=N)N)NC(=O)[C@H](CC(C)C)NC(=O)[C@@H](CC(C)C)NC(=O)[C@H](Cc1ccc(O)cc1)NC(=O)[C@H](CO)NC(=O)[C@H](Cc1c[nH]c2ccccc12)NC(=O)[C@H](Cc1c[nH]cn1)NC(=O)[C@@H]1CCC(=O)N1 , thanks.
4 min

Each recorded value in this set is attributed to ChEMBL document CHEMBL1125322.
